# Test system: PBMC
# testContext: 12.5 µM
# Average (percentage cell inhibition), Mastoparan PBMC values compiled below
Number only, in %; omit the unit.

compoundStructureString: CC[C@H](C)[C@H](N)C(=O)N[C@@H](CC(N)=O)C(=O)N[C@@H](CCCCN)C(=O)N[C@@H](CCCCN)C(=O)N[C@@H](C)C(=O)N[C@@H](CC(C)C)C(=O)N[C@@H](C)C(=O)N[C@@H](C)C(=O)N[C@@H](CC(C)C)C(=O)N[C@@H](C)C(=O)N[C@@H](CCCCN)C(=O)N[C@@H](CCCCN)C(=O)N[C@H](C(=O)N[C@@H](CC(C)C)C(N)=O)[C@@H](C)CC
systemName: PBMC
measurementUnit: %
measurement: -9.841
--
compoundStructureString: CC[C@H](C)[C@H](N)C(=O)N[C@@H](CC(N)=O)C(=O)N[C@@H](CC(C)C)C(=O)N[C@@H](CCCCN)C(=O)N[C@@H](C)C(=O)N[C@@H](CC(C)C)C(=O)N[C@@H](C)C(=O)N[C@@H](C)C(=O)N[C@@H](CC(C)C)C(=O)N[C@@H](C)C(=O)N[C@@H](CCCCN)C(=O)N[C@@H](CCCCN)C(=O)N[C@@H](CCC(N)=O)C(=O)N[C@@H](CC(C)C)C(N)=O
systemName: PBMC
measurementUnit: %
measurement: -1.132

Turning now to a further record.
Q: Param item = `CC[C@H](C)[C@H](N)C(=O)N[C@@H](CC(N)=O)C(=O)N[C@@H](CCC(N)=O)C(=O)N[C@@H](CCCCN)C(=O)N[C@@H](C)C(=O)N[C@@H](CC(C)C)C(=O)N[C@@H](C)C(=O)N[C@@H](C)C(=O)N[C@@H](CC(C)C)C(=O)N[C@@H](C)C(=O)N[C@@H](CCCCN)C(=O)N[C@@H](CCCCN)C(=O)N[C@H](C(=O)N[C@@H](CC(C)C)C(N)=O)[C@@H](C)CC` ; retrieve measured Average (percentage cell inhibition), Mastoparan PBMC.
Ans: 10.4738

====

# Test system: PBMC
# testContext: 12.5 µM
propertyName: Average (percentage cell inhibition), Mastoparan PBMC (%)
Number only, in %; omit the unit.

compoundStructureString: CC[C@H](C)[C@H](NC(=O)[C@H](CCCCN)NC(=O)[C@H](CCCCN)NC(=O)[C@H](C)NC(=O)[C@H](CC(C)C)NC(=O)[C@H](C)NC(=O)[C@H](C)NC(=O)[C@H](CC(C)C)NC(=O)[C@H](C)NC(=O)[C@H](CCCCN)NC(=O)[C@H](CC(C)C)NC(=O)[C@H](CC(N)=O)NC(=O)[C@@H](N)Cc1c[nH]c2ccccc12)C(=O)N[C@@H](CC(C)C)C(N)=O
measurement: 19.8521
--
compoundStructureString: CC[C@H](C)[C@H](N)C(=O)N[C@@H](CC(N)=O)C(=O)N[C@@H](CC(C)C)C(=O)N[C@@H](CCCCN)C(=O)N[C@@H](C)C(=O)N[C@@H](CC(C)C)C(=O)N[C@@H](C)C(=O)N[C@@H](C)C(=O)N[C@@H](CC(C)C)C(=O)N[C@@H](C)C(=O)N[C@@H](CCCCN)C(=O)N[C@@H](CCCCN)C(=O)N[C@H](C(=O)N[C@@H](CCC(N)=O)C(N)=O)[C@@H](C)CC
measurement: 1.109

Turning now to a further record.
Q: Param item = `CC[C@H](C)[C@H](NC(=O)[C@H](CCCCN)NC(=O)[C@H](CCCCN)NC(=O)[C@H](C)NC(=O)[C@H](CC(C)C)NC(=O)[C@H](C)NC(=O)[C@H](C)NC(=O)[C@H](CC(C)C)NC(=O)[C@H](C)NC(=O)[C@H](CCCCN)NC(=O)[C@H](CC(C)C)NC(=O)[C@H](CC(N)=O)NC(=O)[C@@H](N)CCC(N)=O)C(=O)N[C@@H](CC(C)C)C(N)=O` ; retrieve measured Average (percentage cell inhibition), Mastoparan PBMC.
Ans: 13.6421
